Reported IC50 values follow for various molecules
Target: ADMP (ADAMTS-4-5) (Homo sapiens)
Construct: purchased Calbiochem PF113
Sequence (O75173 213-837): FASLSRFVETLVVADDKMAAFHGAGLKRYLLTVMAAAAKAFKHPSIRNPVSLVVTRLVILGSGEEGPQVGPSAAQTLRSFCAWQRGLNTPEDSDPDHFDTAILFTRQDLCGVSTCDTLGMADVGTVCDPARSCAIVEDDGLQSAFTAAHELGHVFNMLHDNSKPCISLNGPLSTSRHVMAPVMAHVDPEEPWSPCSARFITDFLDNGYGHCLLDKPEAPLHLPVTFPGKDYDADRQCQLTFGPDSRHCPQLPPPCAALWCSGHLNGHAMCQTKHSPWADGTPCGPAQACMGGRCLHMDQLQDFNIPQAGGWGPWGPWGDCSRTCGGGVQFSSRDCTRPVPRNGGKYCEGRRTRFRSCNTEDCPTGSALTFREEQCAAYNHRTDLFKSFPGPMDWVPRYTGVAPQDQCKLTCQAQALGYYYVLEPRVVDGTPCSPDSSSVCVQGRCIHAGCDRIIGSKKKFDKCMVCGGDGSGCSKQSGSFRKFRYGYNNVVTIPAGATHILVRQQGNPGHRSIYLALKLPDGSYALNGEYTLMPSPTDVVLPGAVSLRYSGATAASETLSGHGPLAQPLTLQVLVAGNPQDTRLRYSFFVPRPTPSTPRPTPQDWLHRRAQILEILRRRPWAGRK
Assay: ADMP activity assay (procedures of WO00/05256)
Format: biochemical
Details: read-out: IC50 rating (ADMP inhibitory activity)

// solved cases for IC50 follow
C[C@H](NC(=O)[C@H](O)[C@@H](O)C(=O)N1CCCC1c1cccc(Cl)c1)c1ccc(Br)cc1 (stereo partly drawn) [Compound 209] :: < 0.25 µM
C[C@H](NC(=O)C(O)C(O)C(=O)N1CCc2ccccc2C1)c1cccc(I)c1 (stereo partly drawn) [Compound 219] :: 1 to 5 µM

Now, please, on to the next molecule.
Would you kindly share the measured IC50 for CN1CCC(N(C)C(=O)[C@H](O)[C@@H](O)C(=O)NCc2ccc(C(F)(F)F)cc2)CC1 [Compound 122] ?
0.25 to 1 µM

Data provenance is patent US7553864B2.
